These data points were gathered from patent US20230276804A1.

Give Observed Efficacy (%) for every item shown.
- Tested on: Plutella xylostella
- Assay Protocol: Leaf dip method (cabbage leaves) against Plutella xylostella (Example C)
- Format: in vivo
- Applied Conditions: single compound, 1 ppm, 72 h

Input Cc1c(COC(=O)[C@@H]2[C@H](/C=C(\Cl)C(F)(F)F)C2(C)C)cccc1-c1ccccc1 (racemic) [Bifenthrin] , output reported Observed Efficacy (%).
25%

Input CN1COCN(Cc2cnc(Cl)s2)/C1=N\[N+](=O)[O-] [Thiamethoxam] , output reported Observed Efficacy (%).
12.5%

Below is a list of compounds. For each, state its recorded Observed Efficacy (%).
1. CC1=NNC(=O)N(/N=C/c2cccnc2)C1 [Pymetrozine]
2. CC(COc1ccc(Oc2ccccc2)cc1)Oc1ccccn1 (stereo not shown) [Pyriproxyfen]

1: 12.5%; 2: 12.5%

###

- System: Plutella xylostella
- Assay Protocol: Leaf dip method (cabbage leaves) against Plutella xylostella (Example C)
- Assay type: in vivo
- Applied Conditions: single compound, 0.1 ppm, 72 h
Give Observed Efficacy (%) for every item shown.
Answers are plain numbers, in %.

These recorded examples may help you get a feel for the data.
Input CC(COc1ccc(Oc2ccccc2)cc1)Oc1ccccn1 (stereo not drawn) , output reported Observed Efficacy (%).
25

Input CCS(=O)(=O)c1cccnc1-c1nc2cc(S(=O)(=O)C(F)(F)F)ccc2o1 , output reported Observed Efficacy (%).
0

Input CON=CNC(=O)c1ccc(C2=NOC(c3cc(Cl)cc(Cl)c3)(C(F)(F)F)C2)cc1C (stereo not drawn) , output reported Observed Efficacy (%).
0

Input C[C@]1(COC(=O)C2CC2)[C@@H]2C[C@H](O)[C@@]3(C)Oc4cc(-c5cccnc5)oc(=O)c4[C@H](O)[C@@H]3[C@@]2(C)CC[C@@H]1OC(=O)C1CC1 , output reported Observed Efficacy (%).
0

Input N#Cc1ccc(CC(=NNC(=O)Nc2ccc(OC(F)(F)F)cc2)c2cccc(C(F)(F)F)c2)cc1 (mixture of isomers) , output reported Observed Efficacy (%).
0

Below is a list of compounds. For each, state its recorded Observed Efficacy (%).
1. CCN(C(=O)c1cnn(C(C)C(C)C)c1C)c1ccnnc1 (stereo not drawn)
2. O=[N+]([O-])NC1=NCCN1Cc1ccc(Cl)nc1
3. CCN1OCC(NC(=O)c2ccc(C3=NOC(c4cc(Cl)c(F)c(Cl)c4)(C(F)(F)F)C3)cc2C)C1=O (stereo not drawn)
4. CCN(C(=O)CCSCCC(F)(F)F)c1cn(-c2cccnc2)nc1Cl

1: 12.5; 2: 0; 3: 87.5; 4: 0

###

- Tested on: Spodoptera litura
- Assay Protocol: Diet incorporation method against Spodoptera litura (Example B)
- Format: in vivo
- Applied Conditions: Spodoptera litura; single compound, 200 ppm, 96 h; read-out: Observed Efficacy (%)
Metric Name: pest or weed control at 200 ppm

Input C=CCOC1=NS(=O)(=O)c2ccccc21 [Probenazole] , output reported pest or weed control at 200 ppm.
0%

Input COC(=O)N(OC)c1ccccc1COc1ccn(-c2ccc(Cl)cc2)n1 [Pyraclostrobin] , output reported pest or weed control at 200 ppm.
12.5%

Input COC(=O)NC(=S)Nc1ccccc1NC(=S)NC(=O)OC [Thiophanate-methyl] , output reported pest or weed control at 200 ppm.
0%

Input N#Cc1c[nH]cc1-c1cccc2c1OC(F)(F)O2 [Fludioxonil] , output reported pest or weed control at 200 ppm.
25%

Next, consider the following compound.
Input COCC(=O)N(c1c(C)cccc1C)C(C)C(=O)OC (centres unmarked) [Metalaxyl] , output reported pest or weed control at 200 ppm.
0%
